Test system: HT29 colon
experimental_protocol: NCI-60 one-dose screen, 48 h
condition_summary: 10 µM unless noted
Procedure: Growth inhibition of the HT29 human tumor cell line is measured as a screen for anti-cancer activity. Cells are grown in 96 well plates and exposed to the test compound for 48 hours. Compounds are tested at a single concentration, which is 10^-5 M for most compounds. The reported endpoint is percent growth (GI% or GIPRCNT), where numbers from 0 - 100% represent growth inhibition, and numbers from -100% - 0 represent cell death. For example, a value of 40 represents 60% growth inhibition. […]
This is part of a sample that, as a whole, favours compounds with a hit. Of some 83,000 tested, about 20% had one in any assay. Active and inactive are the calls of the source. Rule for the calls: active = growth percent below 10; inactive = the rest.
Outcome codes: active, inactive

molecule | cat
CCOC(=O)C(N=Nc1ccc(S(=O)(=O)N=C(N)N)cc1)C(C)=O (centres undefined) | inactive
COc1ccc(C2=NN(c3ccccc3)C(c3ccc(OC)c(OCc4ccccc4)c3)C2)cc1OC (centres undefined) | inactive
O=C(NN1C(=O)/C(=C/C=C/c2ccc([N+](=O)[O-])o2)SC1=S)c1cccc(O)c1 | active
C=CC[N+](C)(C)CCn1c2ccccc2c2nc3cc(C)c(C)cc3nc21 | inactive
Cc1cc(C)cc(C(=O)Nc2cccc(-c3cn(-c4ccc(S(N)(=O)=O)cc4)nn3)c2)c1 | inactive
CC(=O)Nc1ccc(-n2cnc3cc(-c4ccc(O)cc4)ccc32)cc1C(F)(F)F | inactive
Cc1cc(=O)oc2cc(OCCOc3ccc(/C=C/C(=O)Nc4ccccc4N)cc3)ccc12 | inactive
O=C(Cn1c(/C=C/c2ccccc2)nc2ccccc2c1=O)Nc1ccc(Cl)cc1 | inactive
C/C(=N\N=C1/C(=O)Nc2ccc(Cl)cc21)c1ccc2c(c1)Nc1ccccc1S2 | active

---

Tested on: HS 578T breast
experimental_protocol: NCI-60 one-dose screen, 48 h (100 = growth as untreated, 0 = no growth, -100 = all killed)
condition_summary: 10 µM unless noted
This is part of a sample that, as a whole, favours compounds with a hit. Of some 83,000 tested, about 20% had one in any assay.
Threshold check on growth: at or above 40% gives True, strictly below gives False.

compound | cat
COc1ccc2[nH]c(O)c(N=NC(=O)Cn3c(-c4ccccc4)nc4cc(C)ccc43)c2c1 | False
CN(C)CCn1c2ccccc2c2nc3cc4ccccc4cc3nc21 | True
Cc1ccc(-c2nc(C#N)c(S(=O)(=O)N3CCN(S(=O)(=O)c4ccc(Cl)cc4)CC3)o2)cc1 | True
COc1ccc(-c2nnc3ccc(N/N=C/c4ccc(O)cc4)nn23)cc1 | True
CC1(C)CC[C@]2(C(=O)O)CC[C@]3(C)C(=CCC4[C@@]5(C)C[C@@H](O)[C@@H]6OC(c7ccco7)OC[C@@]6(C)C5CC[C@]43C)C2C1 (some centres undefined) | False
COc1ccc(-c2ccnc(SCc3cc4cc(OC)ccc4[nH]c3=O)n2)cc1 | False
CC(C)(C)OC(=O)/C=C/c1cccc2c1C(=O)NC(C)(c1cc3cc(Cl)ccc3oc1=O)N2 (centres undefined) | True
COc1cc2c3c(n(CCCN4CCC[C@@H]4CO)c(=O)c2cc1OC)-c1cc2c(cc1C3=O)OCO2 | False

---

Tested on: A549/ATCC NSCLC
experimental_protocol: NCI-60 one-dose screen, 48 h (100 = growth as untreated, 0 = no growth, -100 = all killed)
condition_summary: 10 µM unless noted
This is part of a sample that, as a whole, favours compounds with a hit. Of some 83,000 tested, about 20% had one in any assay.
So basically: is growth under 50%? Then true (1). Not under? Then false (0).

compound | cat
COc1ccc(-c2nc3cc(C)ccc3n2CC(=O)N=Nc2c(O)[nH]c3ccc(Cl)cc23)cc1 | true (1)
CC1(c2cc3cc(Br)ccc3oc2=O)NC(=O)c2c(/C=C/C(=O)OC3CC4CCC3(C)C4(C)C)cccc2N1 (stereo not drawn) | false (0)
Clc1ccc(-c2ccc(OCCCN3CCN(c4ccncc4)CC3)cc2)cc1 | false (0)
C/C(=N\N=C1/C(=O)Nc2ccc(Cl)cc21)c1ccc2c(c1)Nc1ccccc1S2 | true (1)
O=c1oc2ccc(Br)cc2cc1C1=CSc2nc3sc4c(c3c(=O)n2N=C1)CCCC4 | false (0)
O=C(Nc1ccccc1)N1CCN(c2cc(-c3cn(-c4ccccc4)nc3-c3cccc(O)c3)ccn2)CC1 | false (0)
Cn1cc(NC(=O)c2cc(NC(=O)c3ccc(/C=C/c4ccccc4)cc3)cn2C)cc1C(=O)NCCCN1CCOCC1 | true (1)
CC1(C)CC[C@]2(C(=O)O)CC[C@]3(C)C(=CCC4[C@@]5(C)C[C@@H](O)[C@@H]6OC(c7cccc(Br)c7)OC[C@@]6(C)C5CC[C@]43C)C2C1 (stereo partly drawn) | true (1)

Values from PubChem BioAssay (NCI)
